Target: opossum alpha-2C adrenergic receptor (Didelphis virginiana, UniProt P35405, S309A/S310A/S312A/T311V)
Sequence (P35405 whole entry S309A/S310A/T311V/S312A): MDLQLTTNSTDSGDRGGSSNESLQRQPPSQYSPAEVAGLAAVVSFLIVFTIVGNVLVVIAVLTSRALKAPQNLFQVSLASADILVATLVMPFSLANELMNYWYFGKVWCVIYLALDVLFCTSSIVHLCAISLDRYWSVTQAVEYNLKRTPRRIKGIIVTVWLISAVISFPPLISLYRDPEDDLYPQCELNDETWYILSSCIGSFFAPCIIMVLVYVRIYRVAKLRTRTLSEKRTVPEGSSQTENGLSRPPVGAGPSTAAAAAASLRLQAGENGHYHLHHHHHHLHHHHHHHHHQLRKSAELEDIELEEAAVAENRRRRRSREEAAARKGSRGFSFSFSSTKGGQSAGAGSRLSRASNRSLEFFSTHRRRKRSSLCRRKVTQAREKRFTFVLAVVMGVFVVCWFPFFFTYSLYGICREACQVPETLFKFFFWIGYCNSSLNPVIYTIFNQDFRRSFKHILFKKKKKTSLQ
Experiment: biochemical
quantity: Kd (nM)
Give a bare numeral; the unit nM is implied.

Query: Look up Kd for this compound: COC(=O)[C@H]1[C@H]2C[C@H]3c4[nH]c5ccccc5c4CCN3C[C@H]2CC[C@@H]1O [[^3H]rauwolscine]
Response: 0.118

###

Biological target: opossum alpha-2C adrenergic receptor (Didelphis virginiana, UniProt P35405, S309A/S310A/S312A/T311V)
Assay: biochemical
quantity: Ki
Please format your answer as a value with the unit trailing.

Query: Would you kindly share the measured Ki for NC[C@H](O)c1ccc(O)c(O)c1 [norepinephrine] ?
Response: 71 nM
